Let's look at some compounds and their measured In vitro activation PPAR α % max.
subject-of-test: human PPAR α (Homo sapiens)
Construct: PPARα: aa 167-C-terminus; PPARγ: aa 165-C-terminus; expressed in transfected cells; host or cells: HEK293
Sequence (Q07869 167-468 limits assumed): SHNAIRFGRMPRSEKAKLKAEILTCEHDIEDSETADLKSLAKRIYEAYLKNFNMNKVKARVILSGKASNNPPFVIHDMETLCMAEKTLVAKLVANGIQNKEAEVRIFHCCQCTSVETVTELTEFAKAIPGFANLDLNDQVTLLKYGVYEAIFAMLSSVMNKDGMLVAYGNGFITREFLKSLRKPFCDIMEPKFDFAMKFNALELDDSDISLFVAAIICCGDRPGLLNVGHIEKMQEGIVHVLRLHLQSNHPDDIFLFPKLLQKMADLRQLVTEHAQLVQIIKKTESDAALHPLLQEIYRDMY
test-description: In vitro PPAR alpha transactivation assay (GAL4-DBD-PPAR-LBD luciferase reporter in HEK293 cells)
Assay type: cell-based
condition: fold activation relative to maximum activation obtained with Wy14643 (approx. 20 fold corresponded to 100%)
endpoint: In vitro activation PPAR α % max (%)

{"columns": ["compound", "subject-of-test", "unit-of-measurement", "result-number"],
 "data": [
  ["CCO[C@@H](Cc1ccc(OC/C=C(\\C)C#Cc2cccc(C(F)(F)F)c2)cc1)C(=O)O [Example 12]", "human PPAR α (Homo sapiens)", "%", 195],
  ["CCO[C@@H](Cc1ccc(OC/C=C(\\C)C#Cc2cc(Cl)cc(Cl)c2)cc1)C(=O)O [Example 8]", "human PPAR α (Homo sapiens)", "%", 139],
  ["CCOC(Cc1ccc(OCC=C(C)C#Cc2cccc3ccccc23)cc1)C(=O)O (stereo in doubt) [Example 18]", "human PPAR α (Homo sapiens)", "%", 181],
  ["CCO[C@@H](Cc1ccc(OC/C=C/C#Cc2cc(Cl)cc(Cl)c2)cc1)C(=O)O [Example 20]", "human PPAR α (Homo sapiens)", "%", 154]
]}

Measured values drawn from patent US7202213B2 for this set.
